// data source = patent US10051861B2

assay: logP by HPLC on reversed-phase columns (C 18), EEC Directive 79/831 Annex V.A8; format: physicochemical; conditions: [b] LC-MS, neutral range, pH 7.8, 0.001 molar aqueous ammonium bicarbonate/acetonitrile; read-out: logP(neutral)
measurement_name: chromatographic logP
Hey, just send me the number, nothing else.

# count of solved cases: 3
O=C(Nc1ccc(Br)cc1F)C(F)(F)F [VI-7]	2.51
O=C(Nc1ccc(Br)cc1Br)C(F)(F)F [VI-4]	2.89
O=C(Nc1ccc(F)cc1Cl)C(F)(F)F [VI-5]	2.31

Now, please, on to the next compound.
In: Which chromatographic logP is reported for this compound? O=C(Nc1ccc(Br)cc1Cl)C(F)(F)F [VI-3]
Out: 2.81

----------
test system: greenhouse red spider mite (Tetranychus urticae); test: Tetranychus urticae spray test, OP-resistant (TETRUR), bean leaf disks; format: in vivo; conditions: application rate 500 g/ha, after 6 days
measurement_name: efficacy (spider mites killed)
Quote the value and follow it with the unit of measurement.

Cc1cc(F)c(N=C(N)C(F)(F)C(F)(F)C(F)(F)C(F)(F)C(F)(F)C(F)F)cc1SCC(F)(F)F	100%
Cc1cc(F)c([S+]([O-])CC(F)(F)F)cc1N=C(N(C)C)C(F)(F)F (stereo not shown)	100%
CNC(=Nc1cc(SCC(F)(F)F)c(F)cc1C)C(F)(F)F	80%
CNC(=Nc1ccc(C(F)(F)F)c(SCC(F)(F)F)c1)C(F)(F)F	100%

Here is the next item to consider.
In: Field request: efficacy (spider mites killed) | item: CN/C(=N/c1ccc(C(F)(F)F)c([S+]([O-])CC(F)(F)F)c1)C(F)(F)F (stereo not shown)
Out: 100%

----------
test system: greenhouse red spider mite (Tetranychus urticae); assay: Tetranychus urticae spray test, OP-resistant (TETRUR), bean leaf disks; format: in vivo; conditions: Tetranychus urticae, foliar, 144 h, read-out: efficacy (spider mites killed)
# maps each entry to its pest or weed control at 500 g/ha
Numeric only. Scale: %

In: Using the record for "N/C(=N\c1cc(SCC(F)(F)F)c(Cl)cc1Cl)C(Cl)(Cl)Cl" , report its pest or weed control at 500 g/ha.
Out: 100

In: Given "Cc1cc(F)c(/N=C2/NCCCS2)cc1SCC(F)(F)F" , state its recorded pest or weed control at 500 g/ha.
Out: 90

----------
tested on: greenhouse red spider mite (Tetranychus urticae); assay: Tetranychus urticae spray test, OP-resistant (TETRUR), bean leaf disks; type: in vivo; conditions: Tetranychus urticae, foliar, 144 h, application rate 500 g/ha, after 6 days; read-out: efficacy (spider mites killed)
measurement_name: pest or weed control at 500 g/ha

In: Query (compound): N/C(=N\c1cc(SCC(F)(F)F)c(Cl)cc1Cl)c1ccccn1 [Ia-134] ; field requested: pest or weed control at 500 g/ha
Out: 100%

In: Which pest or weed control at 500 g/ha value is on record for CN/C(=N/c1cc([S+]([O-])CC(F)(F)F)c(C)cc1F)c1cccc(C(F)(F)F)c1 (stereo not drawn) [Ib-113] ?
Out: 100%

In: Which measured pest or weed control at 500 g/ha value corresponds to Cc1cc(F)c(/N=C(/N)c2ccc(Cl)cc2)cc1SCC(F)(F)F [Ia-215] ?
Out: 90%

In: # pest or weed control at 500 g/ha lookup, item Cc1cc(F)c(/N=C(/c2ccc(Cl)cc2)N(C)C)cc1SCC(F)(F)F [Ia-50]
Out: 100%

In: Which pest or weed control at 500 g/ha value belongs to CN(C)/C(=N\c1cc([S+]([O-])CC(F)(F)F)c(Cl)cc1Cl)c1ccccc1 (stereo not drawn) [Ib-127] ?
Out: 100%

In: Using the record for CN(C)/C(=N\c1cc([S+]([O-])CC(F)(F)F)c(Cl)cc1Cl)c1ccc(Cl)nc1 (stereo not drawn) [Ib-119] , report its pest or weed control at 500 g/ha.
Out: 100%

In: Which pest or weed control at 500 g/ha reading was recorded for the compound CN/C(=N/c1ccc(Cl)c(SCC(F)(F)F)c1)C(F)(F)F [Ia-217] ?
Out: 100%

In: // returns reported pest or weed control at 500 g/ha for input N/C(=N/c1cc([S@+]([O-])CC(F)(F)F)c(Cl)cc1Cl)C(F)(F)F [Ib-17]
Out: 100%

In: Entry N/C(=N/c1cc([S+]([O-])CC(F)(F)F)c(Cl)cc1Br)C(F)(F)F (stereo not drawn) [Ib-57] has what pest or weed control at 500 g/ha?
Out: 100%

In: // query pest or weed control at 500 g/ha value for entry N/C(=N/c1cc(SCC(F)(F)F)c(Br)cc1Cl)C(F)(F)F [Ia-121]
Out: 100%

In: # get_value(readout='pest or weed control at 500 g/ha', item= N#CC/C(N)=N/c1cc(SCC(F)(F)F)c(Cl)cc1Cl [Ia-173] )
Out: 90%

In: Please report the recorded pest or weed control at 500 g/ha for CN/C(=N/c1cc([S+]([O-])CC(F)(F)F)c(Br)cc1F)C(F)(F)F (stereo not drawn) [Ib-78] .
Out: 100%

In: Name the reported pest or weed control at 500 g/ha value associated with the compound Cc1cc(F)c(/N=C(\NC2CCS(=O)(=O)C2)C2CC2)cc1SCC(F)(F)F (stereo not drawn) [Ia-247]
Out: 100%

In: Bench note: what pest or weed control at 500 g/ha did Cc1cc(Cl)c(/N=C(\N)C(F)(F)C(F)(F)F)cc1[S+]([O-])CC(F)(F)F (stereo not drawn) [Ib-35] show?
Out: 100%

In: What pest or weed control at 500 g/ha value was documented for this compound, Cc1cc(F)c(/N=C(\N)C2(Cl)CC2)cc1[S+]([O-])CC(F)(F)F (stereo not drawn) [Ib-22] ?
Out: 100%

In: Can you look up the measured pest or weed control at 500 g/ha of CCN/C(=N\c1cc([S+]([O-])CC(F)(F)F)c(Cl)cc1Cl)c1cccnc1 (stereo not drawn) [Ib-150] for me?
Out: 90%

In: Please look up its pest or weed control at 500 g/ha: N/C(=N/c1cc([S+]([O-])CC(F)(F)F)c(Br)cc1Br)C(F)(F)F (stereo not drawn) [Ib-18]
Out: 80%

In: Requested field: pest or weed control at 500 g/ha. Item: CN/C(=N\c1cc([S+]([O-])CC(F)(F)F)c(C)cc1C)c1ccc(Cl)cc1 (stereo not drawn) [Ib-100]
Out: 100%
